system: Human immunodeficiency virus 1; assay: Antiviral activity in an in vitro HIV replication assay; format: functional, organism-based; conditions: Human immunodeficiency virus 1
metric: IC90

molecule | val
CN(CC(C)(CCN1CCC2C(CCN2C(=O)OC(C)(C)C)C1)c1ccccc1)S(=O)(=O)c1ccccc1 (single isomer, unassigned; isomer B) | 100 nM
CN(C[C@@](C)(CCN1CCC2C(CCN2C(=O)OC(C)(C)C)C1)c1ccccc1)S(=O)(=O)c1ccccc1 (mixture of isomers) | 111 nM
CN(C[C@@](C)(CCN1CCC2C(CCN2C(=O)OCc2ccccc2)C1)c1ccccc1)S(=O)(=O)c1ccccc1 (mixture of isomers) | > 300 nM
CN(C[C@@](C)(CCN1CCC2C(CCC(=O)N2Cc2ccccc2)C1)c1ccccc1)S(=O)(=O)c1ccccc1 (stereo partly specified) | 333 nM
CN(C[C@](C)(CCN1CCC2C(CCN2C(=O)OCc2ccc([N+](=O)[O-])cc2)C1)c1ccccc1)S(=O)(=O)c1ccccc1 (mixture of isomers) | 111 nM
CN(C[C@@](C)(CCN1CCC2C(CCN2C(=O)Cc2ccccc2)C1)c1ccccc1)S(=O)(=O)c1ccccc1 (mixture of isomers) | 111 nM
